- assay system: Prostaglandin E2 receptor EP2 subtype (Homo sapiens)
- experimental details: EP2 receptor modulators, dose response, cell-based, human EP2, PGE2 EC50 shift (AID 1421)
- conditions: EP2-expressing cells, PGE2 EC50 shift by compound; measured here: PGE2 EC50 at 6.7 uM compound
Quick rule for you: PGE2 EC50 with compound at 1 nM or higher means Yes, lower means No.

**Q:** Record CCN(Cc1cc(Cl)cc(C)c1O)Cc1c(O)ccc2ccccc12 ; criterion: PGE2 EC50 with compound no lower than 1 nM. Met?
**A:** No

**Q:** Record CCSC1=N/C(=C\c2ccccc2)C(=O)N1c1ccc(OC)cc1 ; criterion: PGE2 EC50 with compound no lower than 1 nM. Met?
**A:** No

**Q:** Record CCC(=O)Oc1ccc(C(CC)C(CC)c2ccc(OC(=O)CC)cc2)cc1 (stereo not drawn) ; criterion: PGE2 EC50 with compound no lower than 1 nM. Met?
**A:** No

**Q:** Record Cc1ccc(S(=O)(=O)n2c3ccc(Cl)cc3c3nc(C)sc32)cc1 ; criterion: PGE2 EC50 with compound no lower than 1 nM. Met?
**A:** No

**Q:** Record O=c1cc(N2CCCCC2)c(-c2ccccc2)nn1Cc1cccc(Cl)c1 ; criterion: PGE2 EC50 with compound no lower than 1 nM. Met?
**A:** No

**Q:** Record O=C(c1ccccc1)N1N=C(c2ccccc2)CC1c1ccccc1O (stereo not drawn) ; criterion: PGE2 EC50 with compound no lower than 1 nM. Met?
**A:** Yes

**Q:** Record CCN(CC)C(=O)Cn1cc(C(=O)C(=O)NCc2ccco2)c2ccccc21 ; criterion: PGE2 EC50 with compound no lower than 1 nM. Met?
**A:** Yes

**Q:** Record O=C(OCc1ccccc1Cl)c1ccccc1C(=O)c1ccccc1 ; criterion: PGE2 EC50 with compound no lower than 1 nM. Met?
**A:** Yes

**Q:** Record COc1ccc(C2=Nn3c(nnc3-c3ccc(OC)cc3)SC2)cc1 ; criterion: PGE2 EC50 with compound no lower than 1 nM. Met?
**A:** Yes

**Q:** Record Cc1c(F)cccc1NC(=O)CCCCCC1NC(=O)NC1C (stereo not drawn) ; criterion: PGE2 EC50 with compound no lower than 1 nM. Met?
**A:** Yes

**Q:** Record COC(=O)c1sccc1NC(=O)c1cccc(OC)c1 ; criterion: PGE2 EC50 with compound no lower than 1 nM. Met?
**A:** Yes

**Q:** Record CC1Cc2ccccc2N1CC(=O)NC(c1ccccc1)c1ccccc1 (stereo not drawn) ; criterion: PGE2 EC50 with compound no lower than 1 nM. Met?
**A:** Yes

**Q:** Record C=CCSc1nc(Oc2ccccc2)c2sccc2n1 ; criterion: PGE2 EC50 with compound no lower than 1 nM. Met?
**A:** Yes

**Q:** Record C[C@]12CCC(=O)C=C1CCC1C2CC[C@@]2(C)C1CC[C@@H]2O (stereo partly drawn) ; criterion: PGE2 EC50 with compound no lower than 1 nM. Met?
**A:** Yes

**Q:** Record CCCCn1c(=O)c(C(=O)NCc2ccco2)c(O)c2ccccc21 ; criterion: PGE2 EC50 with compound no lower than 1 nM. Met?
**A:** Yes

**Q:** Record COc1ccc(N2C(=O)N(Cc3ccc(C)cc3)c3ccccc3S2(=O)=O)cc1 ; criterion: PGE2 EC50 with compound no lower than 1 nM. Met?
**A:** Yes

**Q:** Record CN(c1ccccc1)c1nc(N2CCCC2)nc(-n2ccnc2)n1 ; criterion: PGE2 EC50 with compound no lower than 1 nM. Met?
**A:** No

**Q:** Record CSc1ncnc2sc(C)c(C)c12 ; criterion: PGE2 EC50 with compound no lower than 1 nM. Met?
**A:** Yes

**Q:** Record CCc1ccc2[nH]c(=O)c(CN(Cc3nnnn3C3CCCC3)C3CCCCC3)cc2c1 ; criterion: PGE2 EC50 with compound no lower than 1 nM. Met?
**A:** No

**Q:** Record O=C(O)[C@@H]1[C@H](C(=O)O)[C@@H](C(=O)O)C[C@H]1C(=O)O ; criterion: PGE2 EC50 with compound no lower than 1 nM. Met?
**A:** No

**Q:** Record Brc1ccc(Cn2c(-c3cncs3)nc3ccccc32)cc1 ; criterion: PGE2 EC50 with compound no lower than 1 nM. Met?
**A:** Yes

**Q:** Record O=C(NCc1ccc(F)cc1)c1ccccc1OCc1ccccc1 ; criterion: PGE2 EC50 with compound no lower than 1 nM. Met?
**A:** Yes

**Q:** Record N#Cc1c(-c2cccs2)nc(SCc2ccc(Cl)cc2)[nH]c1=O ; criterion: PGE2 EC50 with compound no lower than 1 nM. Met?
**A:** Yes

**Q:** Record COC(=O)c1ccccc1NC(=O)c1cnn2c(C(F)F)cc(C3CC3)nc12 ; criterion: PGE2 EC50 with compound no lower than 1 nM. Met?
**A:** Yes

**Q:** Record Cc1ccnc(NS(=O)(=O)c2cccs2)c1 ; criterion: PGE2 EC50 with compound no lower than 1 nM. Met?
**A:** Yes

**Q:** Record CC1CCCN(C(=O)CSc2cnc3ccccc3n2)C1 (stereo not drawn) ; criterion: PGE2 EC50 with compound no lower than 1 nM. Met?
**A:** Yes

**Q:** Record CCOC(=O)c1c(C)nc2ccccc2c1-c1ccccc1 ; criterion: PGE2 EC50 with compound no lower than 1 nM. Met?
**A:** Yes

**Q:** Record COc1ccc(C2=Nn3c(nnc3-c3ccccc3)SC2)cc1OC ; criterion: PGE2 EC50 with compound no lower than 1 nM. Met?
**A:** Yes

**Q:** Record COc1ccc(-c2csc3nc(C)nc(N4CCC(C)CC4)c23)cc1OC ; criterion: PGE2 EC50 with compound no lower than 1 nM. Met?
**A:** No

**Q:** Record Nc1nc(Cc2ccccc2)nc(Cc2ccccc2)c1-c1ccccc1 ; criterion: PGE2 EC50 with compound no lower than 1 nM. Met?
**A:** No

**Q:** Record Cc1ccc(Cl)cc1NC1=NC(=S)N(C(C)C)C12CCCCC2 ; criterion: PGE2 EC50 with compound no lower than 1 nM. Met?
**A:** No

**Q:** Record Cc1ccc(C(Sc2ccccc2)C(Cn2cncn2)C(=O)c2ccccc2)cc1 (stereo not drawn) ; criterion: PGE2 EC50 with compound no lower than 1 nM. Met?
**A:** No

**Q:** Record COC(=O)c1c(NC(=S)NN2CCOCC2)sc2c1CCCC2 ; criterion: PGE2 EC50 with compound no lower than 1 nM. Met?
**A:** No
